CONDITION PARAMETERS: in water, 283.15 K
REPORTED ENDPOINT: solubility (mole fraction)
Answers are plain numbers.

Need solubility (mole fraction) of `Nc1cccc(S(=O)(=O)c2cccc(N)c2)c1` , thanks. 1.52e-05

---

CONDITION PARAMETERS: in acetonitrile, 298.15 K
REPORTED ENDPOINT: solubility (mole fraction)

Recorded solubility (mole fraction) of `Nc1cccc(S(=O)(=O)c2cccc(N)c2)c1` , please. 0.0105

---

CONDITION PARAMETERS: in methanol, 328.15 K
REPORTED ENDPOINT: solubility (mole fraction)

Would you mind telling me what solubility (mole fraction) value was observed for `Nc1cccc(S(=O)(=O)c2cccc(N)c2)c1` ? 0.0152

---

CONDITION PARAMETERS: in ethanol, 323.15 K
REPORTED ENDPOINT: solubility (mole fraction)
Numbers only.

For the compound shown here, `Nc1cccc(S(=O)(=O)c2cccc(N)c2)c1` , give the reported solubility (mole fraction). 0.00738

---

CONDITION PARAMETERS: in cyclohexane, 288.15 K
REPORTED ENDPOINT: solubility (mole fraction)
Answers are plain numbers.

Give its solubility (mole fraction) value. Item: `Nc1cccc(S(=O)(=O)c2cccc(N)c2)c1` 3.6e-06

---

CONDITION PARAMETERS: in water, 313.15 K
REPORTED ENDPOINT: solubility (mole fraction)

For the molecule shown here, `Nc1cccc(S(=O)(=O)c2cccc(N)c2)c1` , give the reported solubility (mole fraction). 7.79e-05

---

CONDITION PARAMETERS: in water, 293.15 K
REPORTED ENDPOINT: solubility (mole fraction)
Numbers only.

// lookup solubility (mole fraction) for `Nc1cccc(S(=O)(=O)c2cccc(N)c2)c1` 2.51e-05

---

CONDITION PARAMETERS: in n-heptanol, 313.15 K
REPORTED ENDPOINT: solubility (mole fraction)
Answers are plain numbers.

Requested read-out: solubility (mole fraction). Entry: `Nc1cccc(S(=O)(=O)c2cccc(N)c2)c1` 0.002

---

CONDITION PARAMETERS: in 1,4-dioxane, 283.15 K
REPORTED ENDPOINT: solubility (mole fraction)
Answers are plain numbers.

Look at this compound and give its reported solubility (mole fraction). `Nc1cccc(S(=O)(=O)c2cccc(N)c2)c1` 0.00411

---

CONDITION PARAMETERS: in ethylene glycol, 298.15 K
REPORTED ENDPOINT: solubility (mole fraction)

What value of solubility (mole fraction) has been reported for the following compound? `Nc1cccc(S(=O)(=O)c2cccc(N)c2)c1` 0.00701

---

CONDITION PARAMETERS: in isobutanol, 328.15 K
REPORTED ENDPOINT: solubility (mole fraction)
Numbers only.

Form field: reported solubility (mole fraction) of `Nc1cccc(S(=O)(=O)c2cccc(N)c2)c1` 0.00271

---

CONDITION PARAMETERS: in 1,4-dioxane, 313.15 K
REPORTED ENDPOINT: solubility (mole fraction)
Give bare numbers.

Quick one: solubility (mole fraction) of `Nc1cccc(S(=O)(=O)c2cccc(N)c2)c1` ? 0.0123

---

CONDITION PARAMETERS: in n-propanol, 318.15 K
REPORTED ENDPOINT: solubility (mole fraction)
Answers are plain numbers.

Fill in the blank: the reported solubility (mole fraction) of `Nc1cccc(S(=O)(=O)c2cccc(N)c2)c1` is ____. 0.00418

Entry source: BigSolDB 2.1
